- System: non-expressing oocytes
- assay.notes: cells
- Format: cell-based, Xenopus laevis
- test.context: Xenopus laevis, Oocyte, read-out: Uptake of [3H]CQ (% non-expressing oocyte control), cis-inhibition
Property: inhibition at 2000 µM; scope: individual compounds
quantity.measured: inhibition at 2000 µM (%)

[[record]]
compound_smiles = "CSCC[C@H](N)C(=O)O"
experimental_system = "non-expressing oocytes"
quantity_measured = "inhibition at 2000 µM"
unit_abbrev = "%"
experimental_value = 101

[[record]]
compound_smiles = "N[C@@H](Cc1ccc(O)cc1)C(=O)O"
experimental_system = "non-expressing oocytes"
quantity_measured = "inhibition at 2000 µM"
unit_abbrev = "%"
experimental_value = 101

[[record]]
compound_smiles = "NCCCC[C@H](N)C(=O)O"
experimental_system = "non-expressing oocytes"
quantity_measured = "inhibition at 2000 µM"
unit_abbrev = "%"
experimental_value = 100

[[record]]
compound_smiles = "O=C(O)[C@@H]1CCCN1"
experimental_system = "non-expressing oocytes"
quantity_measured = "inhibition at 2000 µM"
unit_abbrev = "%"
experimental_value = 97


###

- experimental.system: PfCRT^Ecu1110 (Plasmodium falciparum, UniProt Q9N623, A220S/I356L/K76T/N326D)
- Sequence (Q9N623 whole entry A220S/I356L/K76T/N326D): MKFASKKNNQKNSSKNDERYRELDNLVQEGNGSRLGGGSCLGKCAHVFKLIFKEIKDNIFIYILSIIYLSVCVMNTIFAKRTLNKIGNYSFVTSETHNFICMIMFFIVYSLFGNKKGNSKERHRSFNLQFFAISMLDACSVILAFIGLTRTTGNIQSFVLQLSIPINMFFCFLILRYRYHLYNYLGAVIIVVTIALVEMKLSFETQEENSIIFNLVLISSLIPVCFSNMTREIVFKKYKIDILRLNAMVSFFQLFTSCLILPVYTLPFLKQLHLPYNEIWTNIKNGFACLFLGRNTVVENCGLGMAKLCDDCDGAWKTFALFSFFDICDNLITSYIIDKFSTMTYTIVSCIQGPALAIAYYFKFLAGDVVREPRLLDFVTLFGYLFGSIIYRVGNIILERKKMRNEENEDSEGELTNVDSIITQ
- assay.notes: [3H]CQ uptake into Xenopus oocytes, cis-inhibition by unlabelled solute
- Type: cell-based
- test.context: cis-inhibition; [test solute] = 1 mM; PfCRT-mediated component (background subtracted), sheet title says normalised to PfCRTDd2 control; mean ± SEM; SEM
Cut-off 10 % PfCRTEcu1110 control on [3H]CQ transport (% PfCRTEcu1110 control), cis-inhibition, PfCRTEcu1110, inclusive. At or above means yes (1); below means no (0).

[[record]]
substance = "DPENFR [DR-6]"
class_label = "yes (1)"

[[record]]
substance = "HVDPEN [HN-6]"
class_label = "yes (1)"

[[record]]
substance = "VDEVGG [VG-6]"
class_label = "yes (1)"

[[record]]
substance = "HAGEYG [HG-6]"
class_label = "no (0)"

[[record]]
substance = "VDPVNFK [VK-7]"
class_label = "no (0)"

[[record]]
substance = "DMPNALS [DS-7, host-derived peptide upstream of PL-4]"
class_label = "yes (1)"

[[record]]
substance = "DLDDALDK [DK-8]"
class_label = "yes (1)"


###

- experimental.system: PfCRT^3D7 (Plasmodium falciparum, UniProt Q8IBZ9)
- Sequence (Q8IBZ9 59-398): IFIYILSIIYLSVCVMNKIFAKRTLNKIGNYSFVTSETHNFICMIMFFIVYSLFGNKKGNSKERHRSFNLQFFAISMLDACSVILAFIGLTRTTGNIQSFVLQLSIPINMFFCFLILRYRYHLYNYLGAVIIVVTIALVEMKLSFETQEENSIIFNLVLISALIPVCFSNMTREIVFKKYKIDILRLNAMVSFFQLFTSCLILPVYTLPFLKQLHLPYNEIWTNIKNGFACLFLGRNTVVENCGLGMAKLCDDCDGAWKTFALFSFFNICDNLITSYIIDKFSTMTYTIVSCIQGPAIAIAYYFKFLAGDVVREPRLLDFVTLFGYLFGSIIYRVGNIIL
- assay.notes: cell-based
- Type: cell-based
- test.context: PfCRT3D7 oocytes; [test solute] = 2 mM; total [3H]CQ transport, normalised to the oocyte type control; read-out: Uptake of [3H]CQ (% PfCRT3D7 control), cis-inhibition
- Procedure: The orientation of PfCRT in the parasite’s DV membrane, and also in the oocyte plasma membrane, is such that its N- and C-termini extend into the cytosol. The oocytes were suspended in a reaction buffer adjusted to pH 5.5 to mimic the pH of the DV lumen[1],[2]. […] Unless specified otherwise, this is the direction in which substrate transport was measured in the oocyte assays. […]
quantity.measured: inhibition at 2000 µM (%)

[[record]]
compound = "NCCCC[C@H](N)C(=O)O [L-lysine]"
quantity_measured = "inhibition at 2000 µM"
experimental_value = 100

[[record]]
compound = "N[C@@H](Cc1ccccc1)C(=O)O [L-phenylalanine]"
quantity_measured = "inhibition at 2000 µM"
experimental_value = 100

[[record]]
compound = "CC(C)C[C@H](N)C(=O)O [L-leucine]"
quantity_measured = "inhibition at 2000 µM"
experimental_value = 99

[[record]]
compound = "N[C@@H](CS)C(=O)O [L-cysteine]"
quantity_measured = "inhibition at 2000 µM"
experimental_value = 99

[[record]]
compound = "N[C@@H](Cc1c[nH]c2ccccc12)C(=O)O [L-tryptophan]"
quantity_measured = "inhibition at 2000 µM"
experimental_value = 100

[[record]]
compound = "C[C@H](N)C(=O)O [L-alanine]"
quantity_measured = "inhibition at 2000 µM"
experimental_value = 99

[[record]]
compound = "CC(C)[C@H](N)C(=O)O [L-valine]"
quantity_measured = "inhibition at 2000 µM"
experimental_value = 100

[[record]]
compound = "N=C(N)NCCC[C@H](N)C(=O)O [L-arginine]"
quantity_measured = "inhibition at 2000 µM"
experimental_value = 100

